target: INPPL1; conditions: ASO; further: test concentration or dose not given here
These antisense oligonucleotides have a phosphorothioate backbone; sugars and methylation of C are not fully specified.
Below, each of the sequences is paired with its reported remaining target (mRNA or protein) (fraction of control) value.
Answer with a bare number; do not write a unit.

Here are 2 sequences together with their reported answers.
> print(dat)
          biosequence  experimental.system  endpoint.value
1  GGATGCGGTCGTGCGTGA               INPPL1            0.86
2  AGGTGGGTGGGAAGGAGA               INPPL1            0.98

Given GGTCCTTCTCCTTCTCAA , respond with its remaining target (mRNA or protein) (fraction of control).
0.52

Report remaining target (mRNA or protein) (fraction of control), nothing else, for this sequence: CCATAGTCCGAGGGCAGT
0.88

---

target: PYGL; details: ASO
These antisense oligonucleotides have a phosphorothioate backbone; sugars and methylation of C are not fully specified.
Reported values of remaining target (mRNA or protein) (fraction of control) for individual entries
Please give the numeric answer without any surrounding text.

Identify remaining target (mRNA or protein) (fraction of control) associated with the sequence TACCTGCCATCCATCTCGGA
0.15

Tell us which remaining target (mRNA or protein) (fraction of control) value is on record for AGTATTCTTTTGCCTCGTAC
0.21

Output measured remaining target (mRNA or protein) (fraction of control) for this item: CTCTTCTATATCCAATCCAA
0.63

Could you please provide reported remaining target (mRNA or protein) (fraction of control) for GGTGTTGACAGTGTTATTCA ? Thanks!
0.56

Give remaining target (mRNA or protein) (fraction of control) for the following sequence: CACAGCATGGGAACCGACAA
0.15

Indicate its recorded remaining target (mRNA or protein) (fraction of control); the sequence in question is ATGCTTCTGATTTATCTCAT
0.49

Read the entry ATTGTCATTGGGATAGAGGA and write its reported remaining target (mRNA or protein) (fraction of control).
0.49

Tell us which remaining target (mRNA or protein) (fraction of control) value is on record for CTTGACCAGCGTGAAGTGCA
0.48

Hello, please tell me recorded remaining target (mRNA or protein) (fraction of control) for this one: ACAGTTCAAGAGCTGTCGCT
0.39

---

biological target: ABCB1; conditions: ASO
These antisense oligonucleotides have a phosphorothioate backbone; sugars and methylation of C are not fully specified.
READOUT_NAME: remaining target (mRNA or protein) (fraction of control)
Number only, please.

> print(dat)
            biosequence  endpoint.value
1  CGCGTCCTTGGAACGGCCAC            0.15
2  TACTCCGACTTTAGTGGAAA            0.84
3  GACCTCGCGCTCCTTGGAAC            0.17

Output remaining target (mRNA or protein) (fraction of control) of TCTTCTTTGCTCCTCCATTG
0.67

---

target: CHEK2; conditions: ASO
These antisense oligonucleotides have a phosphorothioate backbone; sugars and methylation of C are not fully specified.
// NB: equality with 0.7 counts as criterion not met; only remaining target (mRNA or protein) (fraction of control) strictly below is criterion met

> print(dat)
            biosequence     assigned.class
1  AACTTCTTGACAAGGTCCAG  criterion not met
2  TGAGATGACAGTAAAACATT  criterion not met
3  TCCACAGCACGGTTATACCC      criterion met

# ---- query sequence ----
Identify whether the sequence AAGGCTTCTTCTGTCGTAAA records remaining target (mRNA or protein) (fraction of control) below 0.7.
criterion not met

---

target: NCOA1; details: ASO
These antisense oligonucleotides have a phosphorothioate backbone; sugars and methylation of C are not fully specified.
Please note: remaining target (mRNA or protein) (fraction of control) exactly at 0.7 is Criterion not met. Only values below 0.7 get Criterion met.

For orientation, consider the following solved cases.
> print(dat)
          biosequence     assigned.class
1  GTGGTTATTCAGTCAGTA      Criterion met
2  TCATGATGATGAAGCCGA      Criterion met
3  TTTAAAAGTGGTTATTCA  Criterion not met

I wonder whether CTGAGGATTGATTCCAGT has remaining target (mRNA or protein) (fraction of control) below 0.7. Can you tell?
Criterion met

Find out if reported remaining target (mRNA or protein) (fraction of control) for TCCGTGCTTGATGCCAGT is less than 0.7
Criterion met

---

biological target: CTNNB1; conditions: ASO
These antisense oligonucleotides have a phosphorothioate backbone; sugars and methylation of C are not fully specified.
READOUT_NAME: remaining target (mRNA or protein) (fraction of control)

> print(dat)
            biosequence  endpoint.value
1  AAACTGTGTAGATGGGATCT            0.57
2  TCAGCTTGAGTAGCCATTGT            0.31
3  ACCAAGCATTTTCACCAGGG             0.4
4  AGAAAATCCCTGTTCCCACT            0.32
5  GTACGCACAAGAGCCTCTAT            0.29

Determine reported remaining target (mRNA or protein) (fraction of control) for GCCATTGTCCACGCTGGATT ; test system: CTNNB1.
≥ 1

Under CTNNB1: report remaining target (mRNA or protein) (fraction of control) of AATCAGCTTGAGTAGCCATT .
0.31

Enter recorded remaining target (mRNA or protein) (fraction of control) with CTNNB1 for AGCAGACACCATCTGAGGAG here.
0.3

---

molecular target: IL1R1; details: ASO
These antisense oligonucleotides have a phosphorothioate backbone; sugars and methylation of C are not fully specified.
READOUT_NAME: remaining target (mRNA or protein) (fraction of control)

// solved cases for remaining target (mRNA or protein) (fraction of control) follow
> print(dat)
            biosequence  endpoint.value
1  CTTTCATATTCTTCTTGGAG            0.75
2  CATAACCTGGCCTGCAACGC            0.75
3  AGTCCTCCGTCTCCTGCAAC            0.75

Name the recorded remaining target (mRNA or protein) (fraction of control) of GCGGGATGACAGAAGAGCGG , assay system IL1R1.
0.75

Specify remaining target (mRNA or protein) (fraction of control) for GGAACTGCCTTTCGCGGTCT , system IL1R1.
0.75

Provide remaining target (mRNA or protein) (fraction of control), tested on IL1R1, for TCTTCAGAGGGTGCGTCTAC .
0.75

System IL1R1. Read-out remaining target (mRNA or protein) (fraction of control). Item TCTGAGTAACACTTTCAT . Report value.
0.75

Report remaining target (mRNA or protein) (fraction of control) on IL1R1 for this entry: TCTGGCATTTTCTCATAGTC
0.75

---

molecular target: ABCB1; details: ASO
These antisense oligonucleotides have a phosphorothioate backbone; sugars and methylation of C are not fully specified.
Reported values of remaining target (mRNA or protein) (fraction of control) for individual entries
The answer should be written as a number, with no unit following it.

Study these solved cases before continuing.
> print(dat)
            biosequence  endpoint.value
1  TCCGACTTTAGTGGAAAGAC             0.9
2   TGACAGTTGGTTTCTTTCC            0.85
3  CCCGACCTCGCGCTCCTTGG            0.15

Output measured remaining target (mRNA or protein) (fraction of control) for this item: TTTTATTGTTCAGTTTAAAAA
0.92

Note remaining target (mRNA or protein) (fraction of control) for the sequence shown: TTGCGGTCCCCTTCAAGATC
0.09

Answer with reported remaining target (mRNA or protein) (fraction of control) of TCCCCTTCAAGATCCATCCC
0.2

Provide only the value of recorded remaining target (mRNA or protein) (fraction of control) for ATACTGACAGTTGGTTTCT
0.65

Output measured remaining target (mRNA or protein) (fraction of control) for this item: GAGCTTGGAAGAGCCGCTACT
0.54

Supply reported remaining target (mRNA or protein) (fraction of control) belonging to this sequence: CGGTCCCCTTCAAGATCCAT
0

Hello, please tell me recorded remaining target (mRNA or protein) (fraction of control) for this one: TTGAGCTTGGAAGAGCCGCTA
0.54

Complete the entry with remaining target (mRNA or protein) (fraction of control) for AGTTCTTCTTTGCTGCTCCA
0.7

Please indicate remaining target (mRNA or protein) (fraction of control) recorded for ACTTTTATTGTTCAGTTTAAA
0.97

Respond only with remaining target (mRNA or protein) (fraction of control) recorded for CATCCCGACCTCGCGCTCCT
0

Output remaining target (mRNA or protein) (fraction of control) of ACTGACAGTTGGTTTCTTT
0.84

# return recorded remaining target (mRNA or protein) (fraction of control) for entry AAAAGTTCTTCTTTGCTGCT
0.92

Complete the entry with remaining target (mRNA or protein) (fraction of control) for CGTCCTTGGAACGGCCACCA
0.18
